tested-target: UniProt P28074
value-kind: IC50 (nM)
Express the result in nM but write the number alone.

Asked: Item under review: O=C1C[C@@H](c2ccccc2)Oc2cc(O)cc(O)c21 [compound 10, pinocembrin] . Reported IC50?
Given back: 2870

====

Test system: HT-29 human colon cancer cells
test-summary: Mitochondrial transmembrane potential
Type: cell-based
condition: HT-29 cells; reduction of mitochondrial transmembrane potential (ΔΨm)
Listed next: entries and their corresponding MTP ED50.
Write down the numeric answer in µM and omit the unit.

>  <entry-smiles>
O=C1C[C@@H](c2ccccc2)Oc2c(Cc3ccccc3O)c(O)c(Cc3ccccc3O)c(O)c21

>  <MTP ED50, µM>
3.6

$$$$
>  <entry-smiles>
O=C1C[C@@H](c2ccccc2)Oc2cc(O)c(Cc3ccccc3O)c(O)c21

>  <MTP ED50, µM>
7.7

$$$$
>  <entry-smiles>
O=C1C[C@@H](c2ccccc2)Oc2c(Cc3cc(Cc4cc(Cc5ccccc5O)ccc4O)ccc3O)c(O)c(Cc3ccccc3O)c(O)c21

>  <MTP ED50, µM>
3.7

$$$$
>  <entry-smiles>
O=C1C[C@@H](c2ccccc2)Oc2c(Cc3cc(Cc4ccccc4O)ccc3O)c(O)c(Cc3cc(Cc4cc(Cc5ccccc5O)ccc4O)ccc3O)c(O)c21

>  <MTP ED50, µM>
3.9

$$$$

Consider the additional compound presented here.
Asked: Recorded MTP ED50 of `O=C1C[C@@H](c2ccccc2)Oc2c(Cc3ccccc3O)c(O)c(Cc3cc(Cc4cc(Cc5ccccc5O)ccc4O)ccc3O)c(O)c21` , please.
Given back: 6.8
